Target: TEAD1 TAZ (amino acids 13-57) (Homo sapiens, UniProt P28347)
Sequence (P28347 167-426 limits assumed): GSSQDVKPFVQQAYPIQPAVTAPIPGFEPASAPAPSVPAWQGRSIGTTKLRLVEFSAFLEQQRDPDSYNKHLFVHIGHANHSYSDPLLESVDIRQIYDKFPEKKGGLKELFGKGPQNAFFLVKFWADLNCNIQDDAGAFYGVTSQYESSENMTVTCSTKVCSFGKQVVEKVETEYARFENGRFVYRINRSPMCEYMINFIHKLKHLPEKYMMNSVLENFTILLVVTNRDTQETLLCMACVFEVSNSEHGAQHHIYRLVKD
Assay: TEAD1-TAZ HTRF (TR-FRET) protein-protein interaction assay
Details: TEAD1-TAZ HTRF, TR-FRET 665 nm/615 nm; read-out: TEAD1 TAZ HTRF combined: EC50
// map EC50 onto a label; ranges zone 1: < 60 nM; zone 2: ≥ 60 nM and < 100 nM; zone 3: ≥ 100 nM

Solved entries (count: 5):
C[C@H]1[C@@H](CF)CN1C(=O)c1c(-c2cnccn2)nn2c(=O)cc(-c3ccc(C4CCCCC4)cc3)[nH]c12 (single isomer, unassigned) [Isomer A, Example 39]; zone 2
Cc1nccnc1-c1nn2c(=O)cc(-c3ccc(O[C@H](c4ccccc4)C(F)(F)F)cc3)[nH]c2c1C(=O)N1CC(CF)C1; zone 3
C[C@@H]1[C@H](CF)CN1C(=O)c1c(-c2ncccn2)nn2c(=O)cc(-c3ccc(C4CCCCC4)cc3)[nH]c12 (single isomer, unassigned) [Isomer A, Example 40]; zone 2
C[C@H]1[C@@H](CF)CN1C(=O)c1c(-c2ncccn2)nn2c(=O)cc(-c3ccc(C4CCCCC4)cc3)[nH]c12 (single isomer, unassigned) [Isomer B, Example 40]; zone 3
O=C(c1c(-c2cnccn2)nn2c(=O)cc(-c3ccc(C4CCCCC4)cc3)[nH]c12)N1CC(CF)C1; zone 1

Now turn to the next compound.
Query: Place this compound in its band: Cc1nccnc1-c1nn2c(=O)cc(-c3ccc(OC(c4ccccc4)C(F)(F)F)cc3)[nH]c2c1C(=O)N1C[C@H](CF)[C@@H]1C (single isomer, unassigned) [Final product obtained using Enantiomer A from Step 1, Example 56]
Response: zone 3
